Documented KIM127 (Expression relative to IgG4) across a set of binders
Biological target: human Mac-1 (integrin αMβ2, CD11b/CD18) (human, UniProt P11215 17-1152; P05107 23-769)
Assay: flow cytometry, HEK293/Mac-1 cells, PBS/MnCl2 (Mn2+), 10 µg/ml of this antibody; binding of reporter mAb KIM127 read

binder: anti-Mac-1 antibody clone DF4-22 (antibody, human IgG4, V domains shown) VH: EVQLVESGGGLVQPGGSLRLSCAASGFTFTDYNVHWVRQAPGKGLEWVSGINSSGSETNYADSVKGRFTISRDNSKNTLYLQMNSLRAEDTAVYYCARDSVFKTVGGYDAVMDYWGQGTLVTVSS VL: DIQMTQSPSSLSASVGDRVTITCRASQSIYNYLAWYQQKPGKAPKLLIYGTSTLQSGVPSRFSGSGSGTDFTLTISSLQPEDFATYYCMQSYSSPTTFGQGTKVEIK
KIM127 (Expression relative to IgG4): 1.64 relative to IgG4

Now for another entry.
Prompt: Request the reported KIM127 (Expression relative to IgG4) associated with anti-Mac-1 antibody clone DF3M-5 (antibody, human IgG4, V domains shown) VH: EVQLVESGGGLVQPGGSLRLSCAASGFTFGTYDMHWVRQAPGKGLEWVSMISPSGGDTYYADSVKGRFTISRDNSKNTLYLQMNSLRAEDTAVYYCARDSSGDWYAMAYWGQGTLVTVSS VL: DIQMTQSPSSLSASVGDRVTITCRASQSIRRYLAWYQQKPGKAPKLLIYGASNLQSGVPSRFSGSGSGTDFTLTISSLQPEDFATYYCQHSSDTPLTFGQGTKVEIK
Response: 1.68 relative to IgG4
